assay: Half life at pH 3; type: ADME; settings: buffer
measured_metric: half-life (min)
Provide only the numeric value, understood in min.

Req: // returns reported half-life for input Nc1nc(O)c2ncn([C@H]3C=C[C@@H](OCP(=O)(O)O)CO3)c2n1
Resp: 300
